# TEST DESCRIPTION: amyloid nucleation score (Sup35N fusion, yeast selection) (log enrichment); library NNK3; higher = more nucleation; inactive = no reads after selection;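 note: zero at mode of non-aggregating sequences after 7 days selection at 30°C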
READOUT LABEL: amyloid nucleation score

Example entries and their recorded answers appear below.
{"SUBSTANCE": "WLIFYVYIVGDPAWLLVFMS", "READOUT LABEL": "amyloid nucleation score", "RECORDED VALUE": "inactive"}
{"SUBSTANCE": "VCASIGCRTGD", "READOUT LABEL": "amyloid nucleation score", "RECORDED VALUE": "inactive"}
{"SUBSTANCE": "SKCEMMRTLEESDDVSFVVK", "READOUT LABEL": "amyloid nucleation score", "RECORDED VALUE": "inactive"}
{"SUBSTANCE": "CALHRAGRTLVCFIYIFSGM", "READOUT LABEL": "amyloid nucleation score", "RECORDED VALUE": "inactive"}
{"SUBSTANCE": "QSLSNKVMLLSGRVNQVDVA", "READOUT LABEL": "amyloid nucleation score", "RECORDED VALUE": -0.935}
{"SUBSTANCE": "MFVWHSC", "READOUT LABEL": "amyloid nucleation score", "RECORDED VALUE": "inactive"}
{"SUBSTANCE": "ECCGDLGAVWQVVRNCGKVL", "READOUT LABEL": "amyloid nucleation score", "RECORDED VALUE": "inactive"}
{"SUBSTANCE": "CDVFVSY", "READOUT LABEL": "amyloid nucleation score", "RECORDED VALUE": "inactive"}

Working through the 3 substances below one at a time, give amyloid nucleation score for each.
1. DMGTYVSCRRIFKNGRYSGC
2. CVLCYRWSHMVLTPGMTGRD
3. GFRECTRNFFL

Key:
1. inactive
2. inactive
3. 0.361
